Assay: pH stability tests
Assay type: physicochemical
Conditions: pH 8.0, 1 day
# pH stability per entry

Recorded results for 5 compounds are shown here.
INSERT INTO measurements (compound, value_kind, result_value) VALUES
  ('COCCOC(=O)NCCO/N=C(\C)C(=O)Nc1ccccc1 [drawing 138]', 'pH stability', '<1%'),
  ('COCCOCNCCO/N=C(\C)CC(=O)c1ccccc1 [drawing 139]', 'pH stability', '<1%'),
  ('COCCOC(=O)NCCO/N=C(\C)C(=O)Nc1ccccc1 [drawing 134]', 'pH stability', '<1%'),
  ('COCCOC(=O)NCCO/N=C1\C(=O)Nc2ccccc21', 'pH stability', '<1%'),
  ('COCCOC(=O)NCCO/N=C(\C)COc1ccccc1', 'pH stability', '35%');

Please look up its pH stability: COCCOCNCCO/N=C(\C)CC(=O)c1ccccc1 [drawing 135] <1%

Please look up its pH stability: COCCOC(=O)NCCO/N=C(\C)C(=O)c1ccccc1 <1%

Please look up its pH stability: COCCOC(=O)NCCO/N=C(\C)CNC(=O)c1ccccc1 24%

---

Experiment: pH stability tests
Assay type: physicochemical
Details: pH 6.5, 10 days
# pH stability per entry

INSERT INTO assay_data (compound, value_kind, result_value) VALUES
  ('COCCOC(=O)NCCO/N=C(\C)C(=O)Nc1ccccc1 [drawing 134]', 'pH stability', '<1%');

Please look up its pH stability: COCCOC(=O)NCCO/N=C(\C)CNC(=O)c1ccccc1 2%

Please look up its pH stability: COCCOC(=O)NCCO/N=C(\C)COc1ccccc1 <1%

Please look up its pH stability: COCCOCNCCO/N=C(\C)CC(=O)c1ccccc1 [drawing 139] <1%

Please look up its pH stability: COCCOC(=O)NCCO/N=C(\C)C(=O)Nc1ccccc1 [drawing 138] <1%

Please look up its pH stability: COCCOCNCCO/N=C(\C)CC(=O)c1ccccc1 [drawing 135] <1%

Please look up its pH stability: COCCOC(=O)NCCO/N=C1\C(=O)Nc2ccccc21 <1%

Please look up its pH stability: COCCOC(=O)NCCO/N=C(\C)C(=O)c1ccccc1 <1%

---

Test: pH stability tests
Type: physicochemical
Settings: pH 7.4, 1 hour
# pH stability per entry

Recorded results for 4 molecules are shown here.
INSERT INTO assay_data (molecule, result_value) VALUES
  ('COCCOCNCCO/N=C(\C)CC(=O)c1ccccc1 [drawing 135]', '<1%'),
  ('COCCOC(=O)NCCO/N=C(\C)C(=O)Nc1ccccc1 [drawing 134]', '<1%'),
  ('COCCOC(=O)NCCO/N=C(\C)COc1ccccc1', '<1%'),
  ('COCCOC(=O)NCCO/N=C(\C)C(=O)Nc1ccccc1 [drawing 138]', '7.4%');

Please look up its pH stability: COCCOC(=O)NCCO/N=C1\C(=O)Nc2ccccc21 <1%

Please look up its pH stability: COCCOCNCCO/N=C(\C)CC(=O)c1ccccc1 [drawing 139] 7.4%

Please look up its pH stability: COCCOC(=O)NCCO/N=C(\C)CNC(=O)c1ccccc1 <1%

Please look up its pH stability: COCCOC(=O)NCCO/N=C(\C)C(=O)c1ccccc1 <1%

---

Test: pH stability tests
Type: physicochemical
Settings: pH 4.0, 1 hour
value kind: pH stability (%)

INSERT INTO measurements (compound, unit_spec, result_value) VALUES
  ('COCCOC(=O)NCCO/N=C(\C)C(=O)Nc1ccccc1 [drawing 138]', '%', 4.0),
  ('COCCOC(=O)NCCO/N=C(\C)CNC(=O)c1ccccc1', '%', 5);

1: COCCOCNCCO/N=C(\C)CC(=O)c1ccccc1 [drawing 139]
2: COCCOC(=O)NCCO/N=C(\C)COc1ccccc1
Among 1 and 2 , whose measured pH stability is the smaller figure? Response format: the label of the selected entry. 2

---

Assay: pH stability tests
Type: physicochemical
Settings: pH 5.0, 6 days
value kind: pH stability

Recorded results for 2 molecules are shown here.
INSERT INTO results (molecule, value_kind, result_value) VALUES
  ('COCCOCNCCO/N=C(\C)CC(=O)c1ccccc1 [drawing 139]', 'pH stability', '<1%'),
  ('COCCOC(=O)NCCO/N=C(\C)COc1ccccc1', 'pH stability', '5%');

Please look up its pH stability: COCCOC(=O)NCCO/N=C(\C)CNC(=O)c1ccccc1 7%

Please look up its pH stability: COCCOCNCCO/N=C(\C)CC(=O)c1ccccc1 [drawing 135] <1%

Please look up its pH stability: COCCOC(=O)NCCO/N=C(\C)C(=O)Nc1ccccc1 [drawing 134] <1%

Please look up its pH stability: COCCOC(=O)NCCO/N=C1\C(=O)Nc2ccccc21 <1%

Please look up its pH stability: COCCOC(=O)NCCO/N=C(\C)C(=O)c1ccccc1 <1%

Please look up its pH stability: COCCOC(=O)NCCO/N=C(\C)C(=O)Nc1ccccc1 [drawing 138] <1%

---

Experiment: pH stability tests
Format: physicochemical
Conditions: pH 8.0, 5 days
value kind: pH stability

Recorded results for 3 molecules are shown here.
INSERT INTO assay_data (molecule, value_kind, result_value) VALUES
  ('COCCOC(=O)NCCO/N=C(\C)C(=O)Nc1ccccc1 [drawing 138]', 'pH stability', '<1%'),
  ('COCCOC(=O)NCCO/N=C(\C)COc1ccccc1', 'pH stability', '45%'),
  ('COCCOC(=O)NCCO/N=C(\C)C(=O)Nc1ccccc1 [drawing 134]', 'pH stability', '<1%');

Please look up its pH stability: COCCOC(=O)NCCO/N=C1\C(=O)Nc2ccccc21 <1%

Please look up its pH stability: COCCOC(=O)NCCO/N=C(\C)CNC(=O)c1ccccc1 30%

Please look up its pH stability: COCCOC(=O)NCCO/N=C(\C)C(=O)c1ccccc1 <1%

Please look up its pH stability: COCCOCNCCO/N=C(\C)CC(=O)c1ccccc1 [drawing 139] <1%

Please look up its pH stability: COCCOCNCCO/N=C(\C)CC(=O)c1ccccc1 [drawing 135] <1%

---

# pH stability per entry
Test: pH stability tests
Format: physicochemical
Conditions: pH 4.0, 3 days

Recorded results for 5 compounds are shown here.
INSERT INTO assay_data (compound, result_value) VALUES
  ('COCCOCNCCO/N=C(\C)CC(=O)c1ccccc1 [drawing 139]', '<1%'),
  ('COCCOCNCCO/N=C(\C)CC(=O)c1ccccc1 [drawing 135]', '<1%'),
  ('COCCOC(=O)NCCO/N=C(\C)COc1ccccc1', '5%'),
  ('COCCOC(=O)NCCO/N=C(\C)C(=O)Nc1ccccc1 [drawing 134]', '<1%'),
  ('COCCOC(=O)NCCO/N=C(\C)CNC(=O)c1ccccc1', '10%');

Please look up its pH stability: COCCOC(=O)NCCO/N=C(\C)C(=O)c1ccccc1 <1%

Please look up its pH stability: COCCOC(=O)NCCO/N=C1\C(=O)Nc2ccccc21 <1%

Please look up its pH stability: COCCOC(=O)NCCO/N=C(\C)C(=O)Nc1ccccc1 [drawing 138] <1%

---

Assay: pH stability tests
Assay type: physicochemical
Conditions: pH 5.0, 4 days
value kind: pH stability

Recorded results for 5 molecules are shown here.
INSERT INTO results (molecule, result_value) VALUES
  ('COCCOC(=O)NCCO/N=C(\C)C(=O)Nc1ccccc1 [drawing 138]', '<1%'),
  ('COCCOC(=O)NCCO/N=C(\C)CNC(=O)c1ccccc1', '7%'),
  ('COCCOCNCCO/N=C(\C)CC(=O)c1ccccc1 [drawing 135]', '<1%'),
  ('COCCOCNCCO/N=C(\C)CC(=O)c1ccccc1 [drawing 139]', '<1%'),
  ('COCCOC(=O)NCCO/N=C1\C(=O)Nc2ccccc21', '<1%');

Please look up its pH stability: COCCOC(=O)NCCO/N=C(\C)C(=O)Nc1ccccc1 [drawing 134] <1%

Please look up its pH stability: COCCOC(=O)NCCO/N=C(\C)COc1ccccc1 5%

Please look up its pH stability: COCCOC(=O)NCCO/N=C(\C)C(=O)c1ccccc1 <1%

---

Assay: Intracellular concentration of non-natural amino acids (cellular uptake)
Assay type: in vitro ADME
value kind: Intracellular Concentration (µM)

Recorded results for 3 compounds are shown here.
INSERT INTO measurements (query_smiles, unit_spec, result_value) VALUES
  ('CC(=O)CNC(=O)c1ccc(C[C@H](N)C(=O)O)cc1', 'µM', 628),
  ('CC(C)=NOCc1ccc(C[C@H](N)C(=O)O)cc1', 'µM', 300),
  ('CC(=O)C(F)(F)c1ccc(C[C@H](N)C(=O)O)cc1', 'µM', 279);

A: CC(=O)c1ccc(C[C@H](N)C(=O)O)cc1
B: CC(=O)N/N=C/c1ccc(C[C@H](N)C(=O)O)cc1
C: CC(=O)C(=O)Nc1ccc(C[C@H](N)C(=O)O)cc1
D: CC(C)=NOCOc1ccc(C[C@H](N)C(=O)O)cc1
Order the records so the highest Intracellular Concentration appears first and the lowest last. Note for the reader: the ranking is given by listing the labels in the order requested. A, C, D, B
